Cited source: the supplement of paper PMC12067926

test system: Community 10; assay: relative growth (AUC of 72 h growth curve relative to DMSO control, dAUC) (ratio); higher = more growth (less inhibition), active = hit call of the paper; settings: 20 µM
Label F if relative growth falls below 1; label T in every other case.

                                    compound  class_label
 0  OC(Cn1cncn1)(c1ccc(F)cc1)c1ccccc1F (centres undefined)            T
 1  CS(=O)(=O)c1cc(C(F)(F)F)ccc1C(=O)c1cnoc1C1CC1            T
 2  CCOCn1c(-c2ccc(Cl)cc2)c(C#N)c(Br)c1C(F)(F)F            F
 3  N#CC(CCc1ccc(Cl)cc1)(Cn1cncn1)c1ccccc1 (centres undefined)            T
 4              CCOCN(C(=O)CCl)c1c(C)cccc1CC            F
 5  CCOC(=O)OC1=C(c2cc(C)ccc2C)C(=O)N[C@]12CC[C@@H](OC)CC2            F
 6  CC(Oc1ccc(Oc2ncc(C(F)(F)F)cc2Cl)cc1)C(=O)O (centres undefined)            F
 7  CO/N=C(/C(=O)OC)c1ccccc1CO/N=C(\C)c1cccc(C(F)(F)F)c1            F
 8  CCCCC(C#N)(Cn1cncn1)c1ccc(Cl)cc1 (centres undefined)            F
 9              C/C(=N\C#N)N(C)Cc1ccc(Cl)nc1            T
10  CCCC1COC(Cn2cncn2)(c2ccc(Cl)cc2Cl)O1 (centres undefined)            F
11  CCCSP(=O)(OCC)Oc1ccc(Br)cc1Cl (centres undefined)            F
12    COP(=O)(NC(C)=O)SC (centres undefined)            F
13  CC1(C)C(C(=O)OC(C#N)c2cccc(Oc3ccccc3)c2)C1(C)C (centres undefined)            F
14               CNC(=O)/C=C(\C)OP(=O)(OC)OC            F
15      O=[N+]([O-])/N=C1\NCCN1Cc1ccc(Cl)nc1            T
16  Fc1ccc([C@]2(Cn3cncn3)O[C@H]2c2ccccc2Cl)cc1 (racemic)            F
17   CCCN(CCOc1c(Cl)cc(Cl)cc1Cl)C(=O)n1ccnc1            F
18  CCOc1cc(Oc2ccc(C(F)(F)F)cc2Cl)ccc1[N+](=O)[O-]            F
19  CN/C(=N/CC1CCOC1)N[N+](=O)[O-] (centres undefined)            F
20  COCC(C)N(C(=O)CCl)c1c(C)csc1C (centres undefined)            F
21  CC(C)N(C(=O)COc1nnc(C(F)(F)F)s1)c1ccc(F)cc1            F
22             CC(C)N1C(=O)c2ccccc2NS1(=O)=O            F
23  CC1(C)C(C=C(Cl)Cl)C1C(=O)OC(C#N)c1ccc(F)c(Oc2ccccc2)c1 (centres undefined)            F
24                       CCCCCCCCCCCCNC(=N)N            F
25  COc1cccc(C(=O)NN(C(=O)c2cc(C)cc(C)c2)C(C)(C)C)c1C            F
26  CC(C)CC(C)c1sccc1NC(=O)c1cn(C)nc1C(F)(F)F (centres undefined)            F
27  CC(C)(C)[C@@H](O)[C@H](Oc1ccc(Cl)cc1)n1cncn1            T
28  COCC(=O)N(c1c(C)cccc1C)C(C)C(=O)OC (centres undefined)            T
29  CS(=O)(=O)NC(=O)c1cc(Oc2ccc(C(F)(F)F)cc2Cl)ccc1[N+](=O)[O-]            T
30  CC(C)N(C)S(=O)(=O)NC(=O)c1cc(-n2c(=O)cc(C(F)(F)F)n(C)c2=O)c(F)cc1Cl            F
31                   Cc1cc(C)nc(Nc2ccccc2)n1            T
32        COc1ccc(-c2ccccc2)cc1NNC(=O)OC(C)C            F
